target: T1, Cyno BCMA-Avi-His (cynomolgus, UniProt A0A2K5UD97 2-53); experiment: SPR (Biacore T100), antibody captured on Protein A chip, antigen as analyte
T1 construct: SPR analyte; also called cynomolgus BCMA Avi-His protein
T1 sequence (A0A2K5UD97 entry or part of it): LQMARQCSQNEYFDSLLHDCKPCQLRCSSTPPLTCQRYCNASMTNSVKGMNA
measuredProperty: binding result

CA10 Variant 3 (antibody, V domains shown) VH: QVQLVESGGGVVQPGRSLRLSCAASGFTFSNFGMHWVRQAPGRGLEWVAVIWSDETNRYYADSVKGRFTVSRDNVKSTVYLQMNSLISEDTAVYYCARDQQYCSSDSCFTWFDPWGQGTLVTVSS VL: QTVVTQEPSLTVSPGGTVTLTCASSTGAVTPSNYANWVQQKPGQAPRGLIGDNNIKPPWTPARFSGSLLGGKAALTLSGVQPEDEAEYYCALWYGGQWVFGGGTKLTVL
binds
CA10 Variant 6 (antibody, V domains shown) VH: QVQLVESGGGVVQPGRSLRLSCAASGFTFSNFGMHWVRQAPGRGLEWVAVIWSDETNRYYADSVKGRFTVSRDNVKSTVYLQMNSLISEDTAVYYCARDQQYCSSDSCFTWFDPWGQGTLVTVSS VL: QTVVTQEPSLTVSPGGTVTLTCASSTGTVTPSNYANWVQQKPGQFPRGLIGDNNSRPPGTPARFSASLLGGKAALTLSGVQPEDEAEYYCALWFGNQWVFGGGTKLTVL
binds
